- assay_procedure: qHTS Assay for Lipid Storage Modulators (AID 1519); also: % is scaled to controls: 0 for no effect and ±100 for the full control effect
- conditions: Drosophila S3 cells, BODIPY lipid droplet/cell ratio, laser cytometry; at 57.5 µM (top of the series); cells loaded with oleic acid
Inconclusive results are not listed.
activity change, negative = inhibition values by entry
Please give a number only; it is taken to be in %.

Please review the following examples before continuing.
| compound | activity change, negative = inhibition / % |
| --- | --- |
| CC[C@]1(C2=NCCN2)Cc2ccccc2O1 | 2.09 |
| NC[C@H](CC(=O)O)c1ccc(Cl)cc1 | 2.02 |
| CC(O)C(C)OC(=O)[C@@H]1C[C@@H]2c3cccc4c3c(cn4C(C)C)C[C@H]2N(C)C1 (stereo not given in full) | 2.46 |
| CC(C)NC[C@H](O)c1ccc(N)c(C#N)c1 | 11.2 |

Could you tell me which activity change, negative = inhibition is on file for COC(=O)/C=C\C(=O)N[C@@H]1CC[C@@]2(O)[C@H]3Cc4ccc(O)c5c4[C@@]2(CCN3CC2CC2)[C@@H]1O5 ?
-0.127

---

- assay_procedure: qHTS for Inhibitors of the Functional Ribonucleoprotein Complex (vRNP) of Lassa (LASV) Arenavirus: LASV Primary Screen - GLuc reporter signal (AID 1347082); also: nearly all actives have a fitted effect of over 60% in size
- conditions: LASV minigenome vRNP, Gaussia luciferase reporter; series mostly up to 57.5 µM
Records with an inconclusive call do not appear. Calls of active or inactive are those of the source. The call rests on the fitted dose curve; tested in HEK293 reporter line.
Response enum: 1 (yes) for active, 0 (no) for inactive

| molecule | class_assignment |
| --- | --- |
| C/C=C/c1cc(OC)c2c(c1)[C@H](C)[C@@H](c1ccc(O)c(OC)c1)O2 | 0 (no) |
| O=C(O)c1cc(O)c2c(c1)C(=O)c1cccc(O)c1C2=O | 0 (no) |
| CC1(C)CCC(CN2CCN(c3ccc(C(=O)NS(=O)(=O)c4ccc(NCC5CCOCC5)c([N+](=O)[O-])c4)c(Oc4cnc5[nH]ccc5c4)c3)CC2)=C(c2ccc(Cl)cc2)C1 | 0 (no) |
| Fc1ccc(CNc2ncnc3ccc(F)cc23)cc1 | 1 (yes) |
| CC(=O)O[C@@]1(C)C[C@@H](O)[C@]2(O)C=CO[C@@H](O[C@@H]3O[C@H](CO)[C@@H](O)[C@H](O)[C@H]3O)[C@@H]21 | 0 (no) |
| CO[C@H]1C[C@H](O[C@H]2[C@H](C)O[C@@H](O[C@@H]3/C(C)=C/C[C@@H]4C[C@@H](C[C@]5(C=C[C@H](C)[C@@H](C6CCCCC6)O5)O4)OC(=O)[C@@H]4C=C(C)[C@@H](O)[C@H]5OC/C(=C\C=C\[C@@H]3C)[C@]54O)C[C@@H]2OC)O[C@@H](C)[C@@H]1O | 0 (no) |
| O=C1CSC(=O)N1C(CCc1ccncc1)COc1ccc(-c2cccc([N+](=O)[O-])c2)cc1 (stereo not given) | 1 (yes) |
| c1ccc2nc(C3=NCCN3)ccc2c1 | 0 (no) |
| COc1ccc(Nc2cc(-c3cnc(N)nc3)nc(N3CCOCC3)n2)cn1 | 1 (yes) |
| c1ccc2c(c1)ccc1ccccc12 | 0 (no) |

Hi, do you know how COc1c2ccoc2c(OCC=C(C)C)c2oc(=O)ccc12 came out in this test?
0 (no)

Hi, do you know how COc1cc(C(=O)O)ccc1O came out in this test?
0 (no)

Hi, do you know how O=C(C=Cc1ccccc1O)c1ccccc1O came out in this test?
0 (no)

---

- assay_procedure: qHTS for Inhibitors of the Functional Ribonucleoprotein Complex (vRNP) of Lassa (LASV) Arenavirus: Viability assay - alamar blue signal for LASV Primary Screen (AID 1347083); also: nearly all actives have a fitted effect of over 80% in size
- conditions: cell viability, alamar blue fluorescence (LASV minigenome counter-screen); series mostly up to 57.5 µM
Results filed as inconclusive are left out. Activity calls are given as the source filed them. Calls follow the shape of the full dose curve; tested in HEK293 reporter line.
Response enum: t = active, f = inactive

| molecule | class_assignment |
| --- | --- |
| C#C[C@]1(O)CC[C@H]2[C@H]3CCc4cc(OC)ccc4[C@H]3CC[C@@]21C | t |
| CC(C)n1cnc2c(NCCCCCCNC(=O)OC(C)(C)C)nc(NCCO)nc21 | f |
| Cc1c(Cn2c(C)nc3c(C(=O)O)cc(N4CCOCC4)cc32)cccc1C(F)(F)F | t |
| CC1=C(C(=O)O)N2C(=O)[C@@H](NC(=O)C(N)c3ccccc3)[C@H]2SC1 (stereo not given in full) | f |

Hi, do you know how C=C1C(=O)OC2C=C(C)CCC=C(C)CCC12 (stereo not given) came out in this test?
f

Hi, do you know how COc1ccc(CO)cc1 came out in this test?
f

Hi, do you know how CO[C@H]1[C@@H]2C=CO[C@@H](O[C@H]3O[C@@H](CO)[C@H](O)[C@@H](O)[C@@H]3O)[C@@H]2[C@@]2(CO)O[C@@H]12 came out in this test?
f

Hi, do you know how CCCCCc1cccc(=O)o1 came out in this test?
f

Hi, do you know how C[C@H](Cc1ccccc1)Nc1ncnc2c1ncn2[C@@H]1O[C@H](CO)[C@@H](O)[C@H]1O came out in this test?
f

Hi, do you know how COC1=CC(=O)OC(CCc2ccc3c(c2)OCO3)C1 (stereo not given) came out in this test?
f

---

- assay_procedure: qHTS for Inhibitors of the Functional Ribonucleoprotein Complex (vRNP) of Lymphocytic Choriomeningitis Arenaviruses (LCMV): Viability assay - alamar blue signal for LCMV Primary Screen (AID 1347085); also: nearly all actives have a fitted effect of over 80% in size
- conditions: alamar blue viability counter-screen, LCMV vRNP screen cells; series mostly up to 57.5 µM
Records with an inconclusive call do not appear. Calls of active or inactive are those of the source. Calls come from the whole dose curve; tested in HEK293 reporter line.
Response enum: True for active, False for inactive

| compound | class_assignment |
| --- | --- |
| CCCn1c(=O)c2[nH]c(-c3ccc(OCC(=O)NCCN)cc3)nc2n(CCC)c1=O | False |
| O=C(/C=C/c1ccccc1)NCCc1cnc[nH]1 | False |
| O=C(O)c1cccc(C(=O)O)n1 | False |

Hi, do you know how O=C(c1ccc(F)c(F)c1Nc1ccc(I)cc1F)N1CC(O)([C@H]2CCCCN2)C1 came out in this test?
True

---

- experimental_target: Nucleoprotein (Lymphocytic choriomeningitis virus (strain Armstrong)) (UniProt P09992)
- Sequence (P09992 whole entry, looked up): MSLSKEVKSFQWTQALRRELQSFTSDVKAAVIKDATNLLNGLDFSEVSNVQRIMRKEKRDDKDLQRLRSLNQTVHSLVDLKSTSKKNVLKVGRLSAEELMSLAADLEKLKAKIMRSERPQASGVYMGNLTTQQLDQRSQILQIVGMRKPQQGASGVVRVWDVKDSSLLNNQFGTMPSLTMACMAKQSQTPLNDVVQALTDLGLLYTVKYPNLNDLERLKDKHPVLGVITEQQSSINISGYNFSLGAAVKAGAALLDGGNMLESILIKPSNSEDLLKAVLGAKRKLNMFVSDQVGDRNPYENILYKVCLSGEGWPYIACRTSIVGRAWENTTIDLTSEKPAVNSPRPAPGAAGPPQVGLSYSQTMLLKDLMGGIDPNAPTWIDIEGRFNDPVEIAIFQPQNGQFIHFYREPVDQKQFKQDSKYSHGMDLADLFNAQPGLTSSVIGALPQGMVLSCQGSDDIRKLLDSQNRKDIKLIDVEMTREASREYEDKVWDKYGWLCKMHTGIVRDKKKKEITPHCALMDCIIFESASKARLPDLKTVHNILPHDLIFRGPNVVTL
- assay_procedure: qHTS for Inhibitors of the Functional Ribonucleoprotein Complex (vRNP) of Lymphocytic Choriomeningitis Arenaviruses (LCMV): LCMV Primary Screen - GLuc reporter signal (AID 1347086); also: nearly all actives have a fitted effect of over 70% in size
- conditions: LCMV minigenome vRNP cell assay, Gaussia luciferase reporter; series mostly up to 57.5 µM
Inconclusive results are not listed. The source made the active and inactive calls. The call rests on the fitted dose curve.
Response enum: 1 (yes) = active, 0 (no) = inactive

Worked cases, answers included:
| compound | class_assignment |
| --- | --- |
| C=C[C@]1(C)Cc2occ(C)c2C[C@H]1C(=C)C(=O)O | 0 (no) |
| C1CCC2(CCCCO2)OC1 | 0 (no) |
| O=C1NC(=O)C(c2ccccc2[N+](=O)[O-])=C1Nc1ccc(O)c(Cl)c1 | 0 (no) |

Hi, do you know how Cc1cccc(-c2[nH]c(C(C)(C)C)nc2-c2ccc3c(c2)OCO3)n1 came out in this test?
1 (yes)

Hi, do you know how NCCC(=O)O came out in this test?
0 (no)

Hi, do you know how CC(C)CNC(=O)/C=C/C=C/c1ccc2c(c1)OCO2 came out in this test?
0 (no)

Hi, do you know how Cn1cc(-c2ccc3ncc(Cc4ccc5ncccc5c4)n3n2)cn1 came out in this test?
0 (no)

Hi, do you know how C=C(C)[C@@H](O)COc1c2ccoc2cc2oc(=O)ccc12 came out in this test?
0 (no)

Hi, do you know how CN(C)CCC(c1ccc(Cl)cc1)c1ccccn1 (stereo unspecified) came out in this test?
0 (no)

Hi, do you know how CC(=O)N[C@@H](Cc1c[nH]c2ccccc12)C(=O)OCc1cc(C(F)(F)F)cc(C(F)(F)F)c1 came out in this test?
0 (no)

Hi, do you know how CC(C)CCOC(=O)CC(C)C came out in this test?
0 (no)

Hi, do you know how NC1=NCCCC1 came out in this test?
0 (no)

Hi, do you know how CCn1cc(-c2ccnc3[nH]c(-c4cccc(CN(C)C)c4)cc23)c(-c2ccc(NC(=O)N(C)C)cc2)n1 came out in this test?
1 (yes)

Hi, do you know how NC(=O)c1c[nH]c2ccccc12 came out in this test?
0 (no)

Hi, do you know how Cc1nc(Nc2n[nH]c3c2CN(C(=O)N[C@H](CN(C)C)c2ccccc2)C3(C)C)c2sccc2n1 came out in this test?
1 (yes)

Hi, do you know how CC1(C)CC(=O)c2c(C(F)(F)F)nn(-c3ccc(C(N)=O)c(NC4CCC(OC(=O)CN)CC4)c3)c2C1 (stereo unspecified) came out in this test?
1 (yes)

Hi, do you know how O=[N+]([O-])c1ccc(CSc2ncnc3c2ncn3[C@@H]2O[C@H](CO)[C@@H](O)[C@H]2O)cc1 came out in this test?
0 (no)
